Biological target: SLAMF9 protein (UniProt Q96A28 19-236, limits assumed)
Sequence (Q96A28 19-236 limits assumed): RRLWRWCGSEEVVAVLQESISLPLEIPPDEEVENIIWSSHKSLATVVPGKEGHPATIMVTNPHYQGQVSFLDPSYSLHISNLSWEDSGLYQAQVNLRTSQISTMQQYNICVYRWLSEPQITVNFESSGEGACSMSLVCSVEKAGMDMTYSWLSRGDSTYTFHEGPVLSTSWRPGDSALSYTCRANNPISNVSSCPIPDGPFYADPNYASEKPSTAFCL
Assay: phage clone on SLAMF9 protein
propertyMeasured: binding result

binder	result
ET200-035 (scFv, screened as phage clone; entry is VL-linker-VH-His tag-HA tag) scFv: NFMLTQPHSVSESPGKTVTISCTRSSGSIASNYVQWYQQRPGSAPTTVIYEDNQRPSGVPDRFSGSIDSSSNSASLTISGLKTEDEADYYCQSYDSTNWVFGGGTKLTVLGSRGGGGSGGGGSGGGGSLEMAQVQLVQSGAEVKKPGSSVKVSCKASGGTFSSYAISWVRQAPGQGLEWMGGIIPIFGTANYAQKFQGRVTITADESTSTAYMELSSLRSEDTAVYYCARYNYYFNDYWGQGTLVTVSSTSGQAGQHHHHHHGAYPYDVPDYAS	no binding
ET200-021 (scFv, screened as phage clone; entry is VL-linker-VH-His tag-HA tag) scFv: QSVLTQPPSVSAAPGQKVTISCSGSNSNIGNNYVSWYQQLPGTAPKLLIYDNNKRPSGIPDRFSGSRSGTSATLGITGLQTGDEADYYCGTWNTTVTPGYVFGTGTKVTVLGSRGGGGSGGGGSGGGGSLEMAEVQLVQSGAEVKKPGASVKVSCKASGYTFTSYGISWVRQAPGQGLEWMGWISAYNGNTNYAQKLQGRVTMTTDTSTSTAYMELRSLRSDDTAMYYCARSVYDLDTWGQGTLVTVSSTSGQAGQHHHHHHGAYPYDVPDYAS	no binding

Cited source for all entries: patent US20210388081A1
